Tested on: carbonic anhydrase II (CA)
Assay: Intact protein MS photoaffinity labeling screen, carbonic anhydrase
Format: binding
Settings: intact protein MS after 10 min irradiation
Method: Using a plate-based format with one fragment per well, each fragment was incubated with the target proteins for 15 min to allow for the formation of non-covalent interactions. […] Finally, the results were directly analyzed from the plate using intact protein mass spectrometry by observing the mass additions that correspond to successful labeling (Fig. 2c, for labeling % values see Supplementary data). […]
Assign classes using reported MS labeling percentage, CA values and the ranges low interval (below 0.3%), middle interval (0.3% to below 0.6%), high interval (0.6% or more), please.

Pick a category. Item: CC1(CCC(=O)NCCCCN2CCOCC2)N=N1
middle interval

Could you place CCN(CCCNC(=O)CCC1(C)N=N1)c1ccccc1 in its proper category? Many thanks.
low interval

Record CCOC(=O)c1c(NC(=O)CCC2(C)N=N2)sc2c1CCN(Cc1ccccc1)C2 — which class?
low interval

GET /class?item= CC1(CCC(=O)NCCNC(=O)c2ccc(Cl)cc2)N=N1
middle interval

Which class does Cc1noc(C)c1-c1ccc(CNC(=O)CCC2(C)N=N2)cc1 fall in?
high interval

Hi, small favor: classify CC1(CCC(=O)NC2CCN(c3ccc(F)cc3)CC2)N=N1 by its MS labeling percentage, CA when you get a moment.
high interval

Pick a category. Item: CC(Cc1cccc(OCc2ccccc2)c1)NC(=O)CCC1(C)N=N1 (stereo not shown)
middle interval

Band assignment needed for Cc1nn(C)cc1CNC(=O)CCC1(C)N=N1 please.
high interval

Please indicate the class for Cc1n[nH]c(C)c1CCNC(=O)CCC1(C)N=N1 [PhP061, Cc1n[nH]c(C)c1CCNC(=O)CCC2(C)N=N2] based on its MS labeling percentage, CA.
low interval

Lab note: which band did CC1(CCC(=O)NCc2ccc(-c3ccc(O)cc3)cc2)N=N1 land in?
low interval

Hi, small favor: classify Cc1ncc(CO)c(CNC(=O)CCC2(C)N=N2)c1O by its MS labeling percentage, CA when you get a moment.
high interval
